Test system: CHO-MG
Test Method Notes: Relative inhibition of CHO-MG and chinese hamster ovary cell proliferation
Assay type: functional
Measured Endpoint: Ratio
Form field (numeric): enter value without unit.

Name the reported Ratio value associated with the compound NCCCNCCCN1CCCCCCCCCCCCCC1
1

Name the reported Ratio value associated with the compound CCN(CCCCNCCCCN)Cc1c2ccccc2cc2ccccc12.Cl.Cl.Cl
1

Name the reported Ratio value associated with the compound Cl.Cl.Cl.NCCCCNCCCCNCc1c2ccccc2cc2ccccc12
148

Name the reported Ratio value associated with the compound Cl.Cl.Cl.NCCCNCCCNCc1c2ccccc2cc2ccccc12
1.8

Name the reported Ratio value associated with the compound NCCCCNCCCCN1CCCCCCCCCCCCCC1
1

###

Test system: CHO-MG
Test Method Notes: Inhibition of MGBG-resistant CHO-MG cell proliferation, no polyamine transporter activity
Type: functional, cell-based
Experimental Setup: Cricetulus griseus
Measured Endpoint: IC50 (µM)
A number alone suffices; assume µM.

Name the reported IC50 value associated with the compound Cl.Cl.Cl.NCCCNCCCNCc1c2ccccc2cc2ccccc12
3.4

Name the reported IC50 value associated with the compound NCCCNCCCN1CCCCCCCCCCCCCC1
10

Name the reported IC50 value associated with the compound CCN(CCCCNCCCCN)Cc1c2ccccc2cc2ccccc12.Cl.Cl.Cl
21.9

Name the reported IC50 value associated with the compound NCCCCNCCCCN1CCCCCCCCCCCCCC1
28.2
